read-out: ATP-citrate lyase (ACLY), ACLY (gene 47); assay: LTEA_HepaRG_ACLY: Life Technologies and Expression Analysis (LTEA) Assay for ATP-citrate lyase (ACLY) using HepaRG (AID 2283466); conditions: mRNA level, 48 h; actives raise or lower the signal
Calls of active or inactive are those of the source. The calls were made as follows: active = hit-call score of the fitted dose curve at least 0.9, where 1 is the maximum; inactive = score below 0.9.
Hi there, use one of these labels in your reply, thanks! t = active, f = inactive

Hi, sorry to bother you, what did the test record for CCCCC(CC)COC(=O)c1ccc(C(=O)OCC(CC)CCCC)cc1 (stereo unspecified) ?
f

Tell me the recorded outcome of this test for CC[C@H](C)C(=O)O[C@H]1C[C@@H](C)C=C2C=C[C@H](C)[C@H](CC[C@@H]3C[C@@H](O)CC(=O)O3)[C@H]21 .
t

What did this assay record as the result for O=C1CCC(N2C(=O)c3ccccc3C2=O)C(=O)N1 (stereo unspecified) ?
f

Please share the test call associated with O=C1CCCCCN1 .
f

How did this test come out for C[C@](N)(Cc1ccc(O)c(O)c1)C(=O)O ?
f

GET /call?item= Cc1ccc(C)c(O)c1 returns the recorded outcome of this test.
f

---

experiment: TOX21_p53_BLA_p4_viability: Viability Assessment in the Tox21 HCT-116 p53 Agonism Beta-lactamase Assay, Phase 4 (AID 2283597);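 also: hits lower the luminescence signal meaning cytotoxicity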
Records with an inconclusive call do not appear. Active and inactive are the calls of the source. The calls were made as follows: active = hit-call score of the fitted dose curve at least 0.9, where 1 is the maximum; inconclusive = response in the unintended direction; inactive = score below 0.9.
attributeMeasured: AC50

# annotated cases, reported AC50 shown
Fill in the blank: the reported AC50 of C=CC(=C)CCC=C(C)C is ____.
inactive

I'd like to know its AC50. The compound in question is CC(=O)OCCC(C)C
inactive

Please report the recorded AC50 for O=C1OC(=O)C2C3C=CC(C3)C12 (configuration not stated) .
inactive

Given the entry O=P(OC(CCl)CCl)(OC(CCl)CCl)OC(CCl)CCl , report its measured AC50.
53.8 µM (active)

Fill blank: measured AC50 of the compound CCCCC(CC)COC(=O)c1ccc(C(=O)OCC(CC)CCCC)cc1 (configuration not stated) is ____.
inactive

We now examine a further compound.
Look up AC50: CC(C)c1cccc(C(C)C)c1N1C(=O)c2ccc(O)cc2C1=O
68.4 µM (active)

---

Assay: CEETOX_H295R_OHPROG: CeeTox H295R High-throughput Steroidogenesis Assay for OH-Progesterone (OHPROG) (AID 2283435)
Conditions: actives raise or lower the signal
Protocol: CEETOX_H295R is a cell-based, multiplexed-readout assay that uses H295R, a human adrenal gland cell line, with measurements taken at 48 hours after chemical dosing in a 96-well plate.CEETOX_H295R_OHPROG is one of 23 assay component(s) measured or calculated from the CEETOX_H295R assay. […] This assay endpoint, CEETOX_H295R_OHPROG, was analyzed with bidirectional fitting relative to DMSO as the negative control and baseline of activity. […]
Activity calls are given as the source filed them. The calls were made as follows: active = hit-call score of the fitted dose curve at least 0.9, where 1 is the maximum; inactive = score below 0.9.
Hi there, use one of these labels in your reply, thanks! active, inactive

So what was the verdict on O=C(O)c1cccc(N(Cc2cccnc2)c2ccc(OC(F)F)c(OC(F)F)c2)c1 in this test?
active

Identify the outcome logged in this assay for the molecule shown: CCOc1cccc(-n2cc(C(=O)N3CCN(c4cc(C(=O)O)c5ccccc5c4)CC3)nc2-c2ccc(C)cc2)c1
inactive

What call does the record list for CC(C)c1cccc(C(C)C)c1N1C(=O)c2ccc(O)cc2C1=O ?
active

Which result was noted for this molecule in the test: O=c1[nH]c2ccc(S(=O)CCN3CCC(Cc4ccc(F)cc4)CC3)cc2o1 (centres undefined)
active

For CCCCCCCCCCCCCCCO , which call appears in the assay record?
inactive

Which outcome was assigned to CCCCCCCCO in this test?
inactive

Which outcome was entered for the molecule COc1cccc(-c2ccc(/C=C\CN3CCCCCC3)cc2Cl)c1 in this test?
inactive

Given Cc1ccc(O)cc1 , state the outcome it received in this test.
inactive

What did the test return for CC[C@H]1CC[C@H](NCc2cc3c(cc2OC)[C@H]2C[C@H]2C(=O)N3C)[C@H](c2ccccc2)N1 ?
inactive
